In this section we review reported melting point values for a set of compounds.

Known results for compounds:
Q: Query: melting point; subject: CN1CCN(c2cc(Cl)cc3c2c(=O)n(Cc2ccncc2)c(=O)n3Cc2ccccc2)CC1 [Example 48]
Result: 94 to 100 °C

Q: Query: melting point; subject: CN1CCN(c2cc(Cl)cc3c2c(=O)n(Cc2ccccc2F)c(=O)n3Cc2ccccc2)CC1 [Example 11]
Result: 147 to 149 °C

Q: Query: melting point; subject: COc1cccc(Cn2c(=O)c3c(N4CCNCC4)cc(Cl)cc3n(Cc3ccccc3)c2=O)c1 [Example 64]
Result: 124 to 130 °C

Next compound, melting point to be filled in.
Q: Query: melting point; subject: O=c1c2c(N3CCNCC3)cc(Cl)cc2n(Cc2ccccc2)c(=O)n1Cc1ccccc1Cl [Example 59]
Result: 120 to 125 °C

* * *

Assay Metric: melting point

Q: Query: melting point; subject: Cc1ccc(Cn2c(=O)c3c(N4CCN(C)CC4)cc(Cl)cc3n(Cc3ccccc3)c2=O)cc1C [Example 39]
Result: 96 to 99 °C

Q: Query: melting point; subject: Cc1cccc(Cn2c(=O)c3c(N4CCN(C)CC4)cc(Cl)cc3n(Cc3ccccc3)c2=O)c1 [Example 23]
Result: 171 to 175 °C

Q: Query: melting point; subject: Cc1ccc(Cn2c(=O)c3c(N4CCN(C)CC4)cc(Cl)cc3n(Cc3ccccc3)c2=O)cc1 [Example 24]
Result: 92 to 97 °C

Q: Query: melting point; subject: CN1CCN(c2cc(Cl)cc3c2c(=O)n(Cc2ccc(C#N)cc2)c(=O)n3Cc2ccccc2)CC1 [Example 37]
Result: 99 to 105 °C

Q: Query: melting point; subject: CN1CCN(c2cc(Cl)cc3c2c(=O)n(CCCc2ccccc2)c(=O)n3Cc2ccccc2)CC1 [Example 43]
Result: 55 to 63 °C

Q: Query: melting point; subject: CN1CCN(c2cc(Cl)cc3c2c(=O)n(Cc2ccccc2O)c(=O)n3Cc2ccccc2)CC1 [Example 28]
Result: 130 to 132 °C

Q: Query: melting point; subject: CCn1c(=O)n(Cc2ccccc2)c(=O)c2c(N3CCN(C)CC3)cc(Cl)cc21 [Example 51]
Result: 68 to 75 °C

Q: Query: melting point; subject: COc1ccccc1Cn1c(=O)c2c(N3CCNCC3)cc(Cl)cc2n(Cc2ccccc2)c1=O [Example 63]
Result: 122 to 125 °C

Q: Query: melting point; subject: CN1CCN(c2cc(Cl)cc3c2c(=O)n(Cc2ccc(O)cc2)c(=O)n3Cc2ccccc2)CC1 [Example 30]
Result: 138 to 140 °C

Q: Query: melting point; subject: CN1CCN(c2cc(Cl)cc3c2c(=O)n(Cc2ccc(Br)cc2)c(=O)n3Cc2ccccc2)CC1 [Example 16]
Result: 93 to 98 °C

Others:
Q: Query: melting point; subject: O=c1c2c(N3CCNCC3)cc(Cl)cc2n(Cc2ccccc2)c(=O)n1Cc1ccccc1F [Example 58]
Result: 98 to 109 °C

* * *

target: human serotonin 5-HT6 receptor (Homo sapiens, UniProt P50406); test: [3H]LSD binding assay for cloned 5-HT6 receptors
Sequence (P50406 whole entry): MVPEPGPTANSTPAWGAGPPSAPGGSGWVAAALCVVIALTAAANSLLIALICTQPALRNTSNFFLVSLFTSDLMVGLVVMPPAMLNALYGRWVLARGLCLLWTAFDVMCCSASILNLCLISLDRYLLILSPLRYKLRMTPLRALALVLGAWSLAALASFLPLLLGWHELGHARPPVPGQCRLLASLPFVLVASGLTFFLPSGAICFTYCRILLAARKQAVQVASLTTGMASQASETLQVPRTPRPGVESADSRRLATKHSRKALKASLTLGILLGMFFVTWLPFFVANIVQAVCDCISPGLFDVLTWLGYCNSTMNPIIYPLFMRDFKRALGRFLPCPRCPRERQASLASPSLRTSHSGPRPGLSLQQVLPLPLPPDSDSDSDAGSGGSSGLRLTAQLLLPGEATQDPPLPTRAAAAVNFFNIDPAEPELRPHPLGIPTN
In this section we review reported IC50 values for a set of compounds.
Use nM as the unit, but write only the number.

Known results for compounds:
Q: Query: IC50; subject: CN1CCN(c2cc(Cl)cc3c2c(=O)n(Cc2ccccc2O)c(=O)n3Cc2ccccc2)CC1
Result: 2.5

Q: Query: IC50; subject: O=c1c2c(N3CCNCC3)cc(Cl)cc2n(Cc2ccccc2)c(=O)n1Cc1ccccc1
Result: 3.4

Others:
Q: Query: IC50; subject: CN1CCN(c2cc(Br)cc3c2c(=O)n(Cc2ccccc2Cl)c(=O)n3Cc2ccccc2)CC1
Result: 1.5

Q: Query: IC50; subject: O=c1c2c(N3CCNCC3)cc(Cl)cc2n(Cc2ccccc2)c(=O)n1CCCc1ccccc1
Result: 1.8
